target_desc: Bcl-2-like protein 10 [11-204] (Homo sapiens)
Construct: 11-204
Sequence (Q9HD36 11-204): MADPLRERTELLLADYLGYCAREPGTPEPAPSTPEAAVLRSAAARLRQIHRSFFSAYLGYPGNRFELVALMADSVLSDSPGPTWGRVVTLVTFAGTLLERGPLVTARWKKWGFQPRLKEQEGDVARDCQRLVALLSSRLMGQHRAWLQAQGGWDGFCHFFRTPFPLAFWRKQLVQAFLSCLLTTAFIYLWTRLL
assay_comment: regulators of Bim-Bcl-B binding, dose response, biochemical, multiplexed, bead-based flow cytometry, human (AID 1327)
Some compounds, each annotated with its measured EC50.

>  <smiles_str>
Clc1nc(NCc2cccnc2)nc(N2CCOCC2)n1

>  <unit_of_measurement>
µM

>  <EC50>
8.51

$$$$
>  <smiles_str>
COc1cc(C=NNC(=O)CN(Cc2ccco2)S(=O)(=O)c2ccccc2)ccc1O

>  <unit_of_measurement>
µM

>  <EC50>
7.81

$$$$
>  <smiles_str>
COc1ccccc1Cn1nnc2c(=O)[nH]c(C3CCN(C(=O)c4ccc(C)cc4)CC3)nc21

>  <unit_of_measurement>
µM

>  <EC50>
12.2

$$$$
>  <smiles_str>
COc1ccccc1Nc1nc(-c2c(C)nc3ncccn23)cs1

>  <unit_of_measurement>
µM

>  <EC50>
0.82

$$$$

* * *

target_desc: Bcl-2-like protein 10 [11-204] (Homo sapiens)
Construct: 11-204
assay_comment: regulators of Bim-Bcl-B binding, dose response, biochemical, multiplexed, bead-based flow cytometry, human (AID 1327)
Entries whose EC50 is below 10 µM take TRUE; entries at or above 10 µM take FALSE.

>  <compound>
COc1ccc(CC(=O)Nc2ccc(-c3nc4cc(C)ccc4o3)c(O)c2)cc1OC

>  <target_desc>
Bcl-2-like protein 10 [11-204] (Homo sapiens)

>  <label_class>
FALSE

$$$$
>  <compound>
Clc1ccc2c(N=NCc3ccc(Br)cc3)ccnc2c1

>  <target_desc>
Bcl-2-like protein 10 [11-204] (Homo sapiens)

>  <label_class>
FALSE

$$$$
>  <compound>
CN(C)[C@@H]1C(=O)C(C(=O)NCN2CCCC2)C(=O)[C@@]2(O)C(=O)C3C(=O)c4c(O)cccc4[C@@](C)(O)C3CC12 (stereo not given in full)

>  <target_desc>
Bcl-2-like protein 10 [11-204] (Homo sapiens)

>  <label_class>
FALSE

$$$$
>  <compound>
Cc1ccc(C=NNC(=O)CSc2nnc(-c3ccc(Cl)cc3)n2-c2ccccc2)o1 [SMR000218122]

>  <target_desc>
Bcl-2-like protein 10 [11-204] (Homo sapiens)

>  <label_class>
TRUE

$$$$
>  <compound>
Nc1ccc(N2CCN(CCCCN3C(=O)C4CCCN4C3=O)CC2)cc1 (stereo not given)

>  <target_desc>
Bcl-2-like protein 10 [11-204] (Homo sapiens)

>  <label_class>
FALSE

$$$$

* * *

target_desc: Bcl-2-like protein 10 [11-204] (Homo sapiens)
Construct: 11-204
assay_comment: regulators of Bim-Bcl-B binding, dose response, biochemical, multiplexed, bead-based flow cytometry, human (AID 1327)
assay_context: inactive by the depositor's call
pEC50: −log10 of the molar value.
The following compounds are listed with their measured pEC50 values.

>  <compound>
Cc1ccc(C=NN(C)C2=NS(=O)(=O)c3ccccc32)o1

>  <pEC50>
5.13

$$$$
>  <compound>
Nc1c(C(=O)NCC2CCCO2)sc2nc3c(c(-c4ccco4)c12)CC/C3=C\c1ccco1 (stereo unspecified) [SMR000259502]

>  <pEC50>
4.86

$$$$
>  <compound>
Cc1cc(OCc2cn3cccnc3n2)ccc1Cl

>  <pEC50>
4.76

$$$$
>  <compound>
Cc1cc(C)cc(NS(=O)(=O)c2ccc3c(c2)c(=O)n(C)c(=O)n3C)c1 [MLS000521783]

>  <pEC50>
4.76

$$$$
>  <compound>
c1ccc(-c2nc(N3CCCCCC3)c3ccccc3n2)nc1 [SMR000046752]

>  <pEC50>
4.78

$$$$
>  <compound>
Cc1cccc(C=NN(CCO)C2=NS(=O)(=O)c3ccccc32)c1

>  <pEC50>
4.41

$$$$

* * *

target_desc: Bcl-2-like protein 10 [11-204] (Homo sapiens)
Construct: 11-204
assay_comment: regulators of Bim-Bcl-B binding, dose response, biochemical, multiplexed, bead-based flow cytometry, human (AID 1327)
assay_context: inactive by the depositor's call
pEC50: −log10 of the molar value.
observation_type: pEC50

>  <compound>
CCOCCCn1c(N)c(C(=O)Nc2sc3c(c2C(=O)OC)CCCC3)c2nc3ccccc3nc21

>  <value>
5.89

$$$$
>  <compound>
CN(N=C/C=C/c1ccccc1)C1=NS(=O)(=O)c2ccccc21

>  <value>
5.71

$$$$
>  <compound>
CN(N=Cc1cccnc1)C1=NS(=O)(=O)c2ccccc21

>  <value>
4.70

$$$$
>  <compound>
COc1ccc(C)cc1-n1c(=O)c2ccccc2c2ccccc2c1=O

>  <value>
4.81

$$$$
>  <compound>
O=C1NC(=O)C2(Cc3c(nc4ccccn4c3=O)N3CCCCCC32)C(=O)N1Cc1ccccc1 (centres undefined)

>  <value>
4.74

$$$$
>  <compound>
O=C(NCCCN1CCN(CCCNC(=O)c2cc([N+](=O)[O-])ccc2Cl)CC1)c1cc([N+](=O)[O-])ccc1Cl

>  <value>
4.36

$$$$
>  <compound>
Cc1ccc(C)n1-c1cccc(C(=O)O)c1

>  <value>
4.31

$$$$
>  <compound>
CN(N=Cc1ccncc1)C1=NS(=O)(=O)c2ccccc21

>  <value>
5.74

$$$$
>  <compound>
O=C(CSc1ccc2nnc(-c3ccccn3)n2n1)Nc1nccs1

>  <value>
5.26

$$$$
>  <compound>
CC(=O)c1ccc(NC(=O)c2ccc3nc(-c4ccco4)c(-c4ccco4)nc3c2)cc1

>  <value>
4.47

$$$$
>  <compound>
O=C(Nc1ccc2nc(-c3ccco3)c(-c3ccco3)nc2c1)N1CCCCCC1

>  <value>
4.48

$$$$
>  <compound>
CCOC(=O)c1c2c3c(cccc3[nH]c1=O)C(=O)c1ccccc1-2

>  <value>
5.45

$$$$
>  <compound>
C#CCn1cc(C=C2C(=O)c3ccccc3C2=O)c2ccccc21

>  <value>
4.75

$$$$
>  <compound>
Cc1nc2ncccn2c1-c1csc(Nc2ccccc2)n1

>  <value>
5.86

$$$$
>  <compound>
COc1ccc(OC)c(-n2c(=O)c3ccccc3c3ccccc3c2=O)c1

>  <value>
4.79

$$$$
>  <compound>
COCCCn1c(N)c(C(=O)Nc2sc3c(c2C(=O)OC)CCCC3)c2nc3ccccc3nc21

>  <value>
5.86

$$$$
>  <compound>
O=C(Nc1ccncc1)c1cc2ccccc2o1

>  <value>
4.21

$$$$
>  <compound>
CCOC(=O)c1nc(Nc2ccc(C(=O)OC)cc2)c2ccccc2n1

>  <value>
4.95

$$$$
>  <compound>
O=C(Nc1ccc2nc(-c3ccco3)c(-c3ccco3)nc2c1)NC1CC1

>  <value>
4.35

$$$$
>  <compound>
CN1CCN(C2=C(Cl)C(=O)C(c3cnc(N4CCCCC4)s3)=C(Cl)C2=O)CC1

>  <value>
5.47

$$$$
>  <compound>
CCN(CC)c1ccc(-c2nn3c(-c4ccccc4OC)nnc3s2)cc1

>  <value>
4.66

$$$$
>  <compound>
O=C(NCc1ccccc1)c1ccc2nc(-c3ccco3)c(-c3ccco3)nc2c1

>  <value>
4.69

$$$$
>  <compound>
CCOC(=O)C1CCN(C(=O)Nc2ccc3nc(-c4ccco4)c(-c4ccco4)nc3c2)CC1

>  <value>
4.33

$$$$
>  <compound>
Nc1c(C(=O)NC2CC2)sc2nc3c(c(-c4ccco4)c12)CC/C3=C/c1ccco1

>  <value>
4.98

$$$$
>  <compound>
COc1ccccc1-n1c(-c2ccc(Cl)cc2)c[nH]c1=S

>  <value>
4.94

$$$$
>  <compound>
COc1ccc(C2=Nn3c(nnc3-c3ccccn3)SC2)cc1OC

>  <value>
5.21

$$$$
>  <compound>
O=S1(=O)N=C(N(CCO)N=C/C=C/c2ccccc2)c2ccccc21

>  <value>
4.93

$$$$
>  <compound>
CCOC(=O)c1c(O)nc2ccc(Cl)c3c2c1-c1ccccc1C3=O

>  <value>
5.88

$$$$
>  <compound>
Cc1cc(C)nc(SCc2cc(=O)c(OC(=O)c3ccc(Cl)c([N+](=O)[O-])c3)co2)n1

>  <value>
5.82

$$$$
>  <compound>
Cc1cc(-c2nnc3n2N=C(c2ccc(-c4ccccc4)cc2)CS3)[nH]n1

>  <value>
4.44

$$$$
>  <compound>
CCOC(=O)c1ccc(Nc2nc(C(=O)OCC)nc3ccccc23)cc1

>  <value>
5.66

$$$$
>  <compound>
O=C(Nc1cccc(Cl)c1)Nc1ccnc(-c2cccnc2)n1

>  <value>
5.95

$$$$
>  <compound>
Cc1cc2n(c1)CCn1c(C)ccc1-2

>  <value>
4.93

$$$$
>  <compound>
COc1ccc(C2=Nn3c(nnc3-c3ccco3)SC2)cc1OC

>  <value>
5.94

$$$$
>  <compound>
Cc1nnc2ccc(-c3cccc(NC(=O)c4ccco4)c3)nn12

>  <value>
5.45

$$$$
>  <compound>
c1ccc(Nc2cccc(Nc3ccccc3)n2)cc1

>  <value>
5.11

$$$$
>  <compound>
Cc1ccc(OCc2cn3cccnc3n2)cc1

>  <value>
4.51

$$$$
>  <compound>
Cc1ccnc(SCc2cc(=O)c(OC(=O)c3ccc(Cl)c([N+](=O)[O-])c3)co2)n1

>  <value>
5.18

$$$$
>  <compound>
O=C(Nc1ccccc1)c1ccc2nc(-c3ccco3)c(-c3ccco3)nc2c1

>  <value>
4.47

$$$$

This collection of values is drawn from BindingDB's records for doi:10.7270/Q2GH9GBT.
